- TARGET_DESC: PD-L1 His protein / PD-1 Fc protein (Homo sapiens (Human), UniProt Q9NZQ7)
- Sequence (Q9NZQ7 19-238): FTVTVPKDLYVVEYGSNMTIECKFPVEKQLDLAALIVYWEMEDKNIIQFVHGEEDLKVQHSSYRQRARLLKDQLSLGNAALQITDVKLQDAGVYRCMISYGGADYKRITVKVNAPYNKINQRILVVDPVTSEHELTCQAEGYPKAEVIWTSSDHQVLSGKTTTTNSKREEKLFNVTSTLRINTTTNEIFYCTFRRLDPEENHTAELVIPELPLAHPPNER
- ASSAY_DETAILS: HTRF Assay (PD-1/PD-L1 interaction)
- Type: binding
- MEASUREMENT_CONTEXT: PD-L1 His 6 nM, PD-1 Fc 6 nM
pIC50: −log10 of the molar value.
RESULT_TYPE: pIC50

* COc1cc(-c2nccc(-c3ccnc(-c4ccc5c(CNC[C@@H]6CCC(=O)N6)cn(C)c5c4)c3Cl)c2Cl)ccc1CNC[C@@H]1CCC(=O)N1 | 9.22
* COc1nc(-c2cccc(-c3ccnc(-c4cc(OC)c5nc(CNC6CCN(C(C)=O)CC6)nn5c4)c3Cl)c2Cl)ccc1CNC(C)C | 9.55
* CNCc1ccc(-c2cccc(-c3ccnc(-c4ccc(CNC(C)C)c(OC)c4)c3Cl)c2Cl)nc1OC | 8.38
